- Tested on: MC-38
- EXPERIMENT NOTES: Cytotoxicity was evaluated against C38 solid tumor of mouse at 500 ug/disk.
- Format: functional
- Design: unit not given beside the values
READOUT TYPE: Cytotoxicity
Lab note: record the figure alone, no unit after it.

COMPOUND	NUMERIC READOUT
Nc1ncnc2c1ncn2C=C=CCCl	400
Cc1cn(CC#CCCl)c(=O)[nH]c1=O	630
Cc1cn(C=C=CCO)c(=O)nc1N	520
Nc1ncnc2c1ncn2C/C=C\CCl	280
Nc1ncnc2c1ncn2CC#CCCl	950
Nc1ncnc2c1ncn2C/C=C/CCl	600
NC1=NC(Cl)c2c(ncn2C/C=C/CCl)N1 (stereo not drawn)	700

Record NC1=NC(N)c2c(ncn2C=C=CCO)N1 (stereo not drawn) , field Cytotoxicity: 180

Origin of values: ChEMBL document CHEMBL1125745
